Reference source: the kinase profiling compilation of Christmann-Franck et al. (2016)

# systemUnderTest: CAMK2D (human) (UniProt Q13557)
# Sequence (Q13557 whole entry, looked up): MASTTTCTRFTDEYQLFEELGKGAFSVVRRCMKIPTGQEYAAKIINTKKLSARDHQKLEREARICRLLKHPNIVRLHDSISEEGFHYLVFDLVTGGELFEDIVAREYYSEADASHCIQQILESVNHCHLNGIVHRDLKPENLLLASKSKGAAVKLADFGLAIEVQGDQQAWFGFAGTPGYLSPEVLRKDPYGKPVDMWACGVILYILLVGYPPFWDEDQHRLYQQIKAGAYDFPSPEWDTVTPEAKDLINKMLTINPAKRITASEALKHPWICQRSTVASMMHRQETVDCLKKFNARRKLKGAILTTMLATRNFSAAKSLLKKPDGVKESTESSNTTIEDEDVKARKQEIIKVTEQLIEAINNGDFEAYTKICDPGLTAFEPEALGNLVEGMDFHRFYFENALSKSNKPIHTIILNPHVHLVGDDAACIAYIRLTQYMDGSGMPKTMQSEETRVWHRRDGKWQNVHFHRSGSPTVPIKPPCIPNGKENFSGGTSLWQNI
# protocol: KINOMEscan competition binding
# settings: compound 10.0 µM
Below is a list of entries, each paired with its recorded kinase still bound, per cent of control value.
Please state the number and follow it with the unit.

Measured kinase still bound, per cent of control of CC(C)n1nc(-c2cc3cc(O)ccc3[nH]2)c2c(N)ncnc21 : 69%

Measured kinase still bound, per cent of control of CCC(=O)N1CCN(c2ccc(-n3c(=O)ccc4cnc5ccc(-c6cnc7ccccc7c6)cc5c43)cc2C(F)(F)F)CC1 : 72%

Measured kinase still bound, per cent of control of COc1ccc(-c2ccc3c(N4CCOCC4)nc(N4C[C@@H](C)O[C@@H](C)C4)nc3n2)cc1CO : 100%

Measured kinase still bound, per cent of control of COC(=O)Nc1ccc(-c2nc(N3CCOCC3)c3cnn(C4CCN(C(=O)OC)CC4)c3n2)cc1 : 100%
